# experimental_system: Torsin-1A (Homo sapiens)
# assay_text: small-molecule binders of mutant TOR1A in lysate, primary screen, cell lysate, small-molecule microarray, COS7 lysate, 635/667 nm fluorescence (AID 1150);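 also: score pools 667 nm emission and signal to noise measuring lysate protein binding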
# run_parameters: COS7 hTOR1A mutant lysate, 635 nm fluorescence, higher = more signal
measurement_label: composite z-score

{"columns": ["molecule", "composite z-score"],
 "data": [
  ["CC(=O)NCCCC[C@@H]1NC(=O)[C@@H]2C[C@H](C(=O)NCCCCCC[N+](C)(C)C)[C@H](c3ccc(O)cc3)N2C1=O", 0.885]
]}

Incoming: I would be grateful if you could share the reported composite z-score for CC(C)C[C@@H]1NC(=O)[C@@]23C(=O)N[C@@H](Cc4ccccc4)C2[C@H](C)[C@@]2(C)O[C@H]2C3/C=C/C/C=C\CNC(=O)[C@@H](CC(C)C)NC1=O (stereo partly specified) .
Outgoing: 0.068

Incoming: I would be grateful if you could share the reported composite z-score for CO[C@H]1O[C@H](CO)[C@@H](OC(=O)Nc2ccccc2)[C@@H]2OC(=O)[C@H](Cc3ccccc3)C/C=C/C[C@@H](Cc3ccccc3)C(=O)O[C@@H]12 .
Outgoing: 0.348

Incoming: I would be grateful if you could share the reported composite z-score for CCOC(=O)C[C@H]1[C@H](OC(=O)c2ccc(C(=O)c3ccccc3)cc2)[C@@H](NC(=O)c2ccc3ccccc3c2)c2cc(OCCCO)ccc2N1C(=O)c1ccc2ccccc2n1 .
Outgoing: 0.819

Incoming: I would be grateful if you could share the reported composite z-score for CCCCC(=C=CC[C@@H](O)c1cccc(OCCO)c1)CCO .
Outgoing: -0.828

Incoming: I would be grateful if you could share the reported composite z-score for CO[C@H]1O[C@H](CO)[C@@H](OC(=O)Nc2ccc(C(F)(F)F)cc2)[C@H](OC(=O)Nc2ccccc2-c2ccccc2)[C@H]1OC(=O)Nc1ccccc1-c1ccccc1 .
Outgoing: 0.263

----------
This listing pairs molecules with measured z-score.
# assay_text: mitochondrial membrane potential change in A549 cells, profiling panel, cell-based, JC-1 fluorescence, basal, 24 h, 100 nL (AID 1138);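 also: A549 lung adenocarcinoma cells under basal conditions with no added stimulus; test concentration not given here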
# run_parameters: higher = more signal

Some solved cases for reference:
{"columns": ["molecule", "z-score"],
 "data": [
  ["Cc1ccc(S[C@]2(C(=O)NCCCN(C)C)CC(=O)N(Cc3ccccc3Cl)[C@@H]2c2ccc(CO)cc2I)cc1", 0.935],
  ["CC1CC/C=C\\[C@H]2OC34C=CCN(CCN5CCOCC5)C(=O)[C@H]3N(CCCCCCO)C(=O)[C@@H]4C2C(=O)O1 (stereo not given in full)", 0.746],
  ["COCCOC(=O)N1C(=O)[C@@]2(c3cc(C#Cc4ccc(OC)cc4)ccc31)[C@H](C(=O)N1CCCCCCC1)[C@H]1C(=O)O[C@H](c3ccccc3)[C@H](c3ccccc3)N1[C@@H]2c1ccccc1OCCO", -0.864],
  ["COc1cccc(C[C@H]2C[C@@H](CO[Si](C(C)C)(C(C)C)C(C)C)N3C(=O)[C@@]4(C(C)=O)O[C@@]23[C@@H]2C(=O)N(C)C(=O)[C@@H]24)c1", 0.189],
  ["O=C1N(Cc2ccccc2)c2ccccc2[C@H]2OC(c3ccc(OCCCO)cc3)=N[C@@]12Cc1ccccc1", -1.4],
  ["C=CC[C@@]1(C(=O)N(C)C)N=C(c2ccc(OCCCO)cc2)O[C@@H]1c1ccccc1", -0.324],
  ["Cc1ccc(F)cc1S(=O)(=O)N[C@@H]1CCN(Cc2ccc3c(c2)OCO3)C1", 1.32],
  ["COCCOC(=O)N1C(=O)[C@@]2(c3ccccc31)[C@H](c1ccc(OCCO)cc1)N1[C@H](c3ccccc3)[C@H](c3ccccc3)OC(=O)[C@H]1[C@@H]2C(=O)N1CCN(c2ncccn2)CC1", -1.03],
  ["COCCOC(=O)N1C(=O)[C@@]2(c3ccccc31)[C@H](C(=O)N1CCCCCCC1)[C@H]1C(=O)O[C@H](c3ccccc3)[C@H](c3ccccc3)N1[C@@H]2c1ccc(O)cc1", 0.0314]
]}

Incoming: I would be grateful if you could share the reported z-score for O=C1C2C=CC(C(O)c3cccs3)N(Nc3ccccc3)C2C(=O)N1c1ccccc1 (stereo not given) .
Outgoing: -0.4
